From: paper PMC6694902

Please provide measured IC50 (DPPH radical scavenging) for the entries that follow.
- TEST_NAME: DPPH radical scavenging assay
- Assay type: biochemical
- SETUP_CONDITIONS: graphically determined; mean ± S.D., n = 3
Kindly answer with a numeric value in µg/mL, unit omitted.

Per the records, this compound ( Cc1cc(N=Nc2ccc(O)c(C=Nc3nc(-c4ccccc4)cs3)c2)ccc1Br ) has IC50 (DPPH radical scavenging) equal to 56

Per the records, this compound ( Cc1cc(N=Nc2ccc(O)c(C=O)c2)ccc1Br ) has IC50 (DPPH radical scavenging) equal to 72

Per the records, this compound ( Cc1cc(C(C)(C)C)c(O)c(C(C)(C)C)c1 [BHT, butylated hydroxy toluene, reference compound] ) has IC50 (DPPH radical scavenging) equal to 31

Per the records, this compound ( Cc1cc(N=Nc2ccc(O)c(C=Nc3nc(-c4ccc(Cl)cc4)cs3)c2)ccc1Br ) has IC50 (DPPH radical scavenging) equal to 52
